# target: Cyclic GMP-AMP synthase (Homo sapiens)
# assayMethodText: Ratio of IC50 for inhibition of cGAS in human THP-1 cells using cGAMP as substrate to IC50 for inhibition of cGAS in human THP-1 cells expressed in baculovirus infected insect cells
observable: Ratio IC50

# lookup: C[C@H]1CN2CC[C@@H]1n1c(nc3cc(Cl)ccc31)O[C@H]1C[C@@H](C(=O)O)N(C1)c1nc(nc3c1oc1ccccc13)C(F)(F)OCCCCC2=O on Cyclic GMP-AMP synthase (Homo sapiens), Ratio IC50 = > 2220

---

# target: Cyclic GMP-AMP synthase (Homo sapiens, UniProt Q8N884)
# Sequence (Q8N884 whole entry): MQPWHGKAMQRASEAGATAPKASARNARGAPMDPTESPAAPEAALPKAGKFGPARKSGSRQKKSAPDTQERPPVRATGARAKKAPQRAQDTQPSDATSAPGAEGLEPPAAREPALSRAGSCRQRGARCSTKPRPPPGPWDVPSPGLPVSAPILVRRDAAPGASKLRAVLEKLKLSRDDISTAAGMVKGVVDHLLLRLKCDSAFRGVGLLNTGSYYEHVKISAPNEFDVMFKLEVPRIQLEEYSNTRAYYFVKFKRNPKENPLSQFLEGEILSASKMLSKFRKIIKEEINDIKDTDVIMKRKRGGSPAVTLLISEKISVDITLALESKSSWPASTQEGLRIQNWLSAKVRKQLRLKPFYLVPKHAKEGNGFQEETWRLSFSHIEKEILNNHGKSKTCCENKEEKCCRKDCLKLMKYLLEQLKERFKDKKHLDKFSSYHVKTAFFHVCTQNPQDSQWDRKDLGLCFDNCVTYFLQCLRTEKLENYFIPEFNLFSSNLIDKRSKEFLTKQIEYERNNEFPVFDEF
# assayMethodText: Ratio of IC50 for inhibition of cGAS in human THP-1 cells using cGAMP as substrate to IC50 for inhibition of cGAS in human THP-1 cells expressed in baculovirus infected insect cells
# Ratio IC50 listing for each entry below

Observe how each entry below is paired with its result.
- CC(=O)[C@@H]1C[C@H]2CN1c1nc(nc3c1oc1ccccc13)CCOCCCC(=O)N1CC[C@@H]([C@@H](C)C1)n1c(nc3cc(Cl)ccc31)O2: > 3560
- C[C@H]1CN2CC[C@@H]1n1c(nc3ccccc31)O[C@H]1C[C@@H](C(=O)O)N(C1)c1nc(nc3c1oc1cc(Cl)ccc13)C(F)(F)CCCOCC2=O: > 6580

Okay, next one:
Entry C[C@@H]1CN2CC[C@H]1n1c(nc3cc(Cl)ccc31)O[C@H]1C[C@@H](C(=O)O)N(C1)c1nc(nc3c1oc1ccccc13)CCOCCCC2=O , Cyclic GMP-AMP synthase (Homo sapiens, UniProt Q8N884) data, Ratio IC50 value: > 253

Source listed as ChEMBL document CHEMBL5608255.
